Target: T1, ARHGAP21, Q5T5U3
T1 sequence (Q5T5U3 45-169, limits assumed, looked up): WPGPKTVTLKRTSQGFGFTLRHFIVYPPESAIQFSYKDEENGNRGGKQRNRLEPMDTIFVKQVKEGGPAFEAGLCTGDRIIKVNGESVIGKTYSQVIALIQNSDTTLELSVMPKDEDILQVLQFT
Experiment: holdup assay
Design: key: below the threshold = too weak to quantify, mostly under pKd 3.1 to 4
Conditions: plain residues with an end cap or a label only (N-terminal biotin on a linker: ado-ado)

{"Binder": "SGSLKLMTTV [DACT1, Q9NYF0]", "pKd": "below the threshold"}
{"Binder": "YYKRPVQEWV [MMP24, Q9Y5R2]", "pKd": "below the threshold"}
{"Binder": "LSEFKAMDSI [CTNNA1, P35221]", "pKd": 4.01}
{"Binder": "TSSMRGMDAV [RSRC2, Q7L4I2]", "pKd": "below the threshold"}
